Molecular target: furin, P09958;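 also: purified furin at 1:10 enzyme:substrate in 50 mM HEPES pH 7.5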
Sequence (P09958 whole entry): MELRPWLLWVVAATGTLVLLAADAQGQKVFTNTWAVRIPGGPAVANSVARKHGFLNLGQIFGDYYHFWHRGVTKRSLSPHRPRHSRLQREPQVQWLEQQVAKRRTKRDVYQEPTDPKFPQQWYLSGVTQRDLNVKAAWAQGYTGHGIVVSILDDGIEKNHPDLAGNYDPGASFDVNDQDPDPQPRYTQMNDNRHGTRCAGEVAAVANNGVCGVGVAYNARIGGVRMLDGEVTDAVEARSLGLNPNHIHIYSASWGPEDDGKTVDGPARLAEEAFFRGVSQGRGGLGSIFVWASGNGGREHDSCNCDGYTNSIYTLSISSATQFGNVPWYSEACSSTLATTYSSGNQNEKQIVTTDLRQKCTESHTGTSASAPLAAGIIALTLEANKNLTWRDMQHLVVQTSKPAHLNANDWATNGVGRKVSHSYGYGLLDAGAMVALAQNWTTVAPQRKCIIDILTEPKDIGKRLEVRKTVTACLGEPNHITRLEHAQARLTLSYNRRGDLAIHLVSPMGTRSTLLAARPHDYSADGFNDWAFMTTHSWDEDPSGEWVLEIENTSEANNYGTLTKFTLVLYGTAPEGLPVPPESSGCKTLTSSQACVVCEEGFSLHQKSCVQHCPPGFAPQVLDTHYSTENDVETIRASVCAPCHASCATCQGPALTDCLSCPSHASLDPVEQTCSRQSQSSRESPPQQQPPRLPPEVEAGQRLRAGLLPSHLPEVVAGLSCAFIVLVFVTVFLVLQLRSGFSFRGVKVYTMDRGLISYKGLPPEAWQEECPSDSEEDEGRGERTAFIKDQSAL
Assay: furin cleavage Z-score vs untreated control; higher = more cleavage, active = 3.5 or more, inactive = 1 or less, 8 variable residues between constant flanks
Conditions: 15 min
The other results are listed elsewhere or left out. The true hit rate is not given.
// one of active, inactive, no free text

Consider the worked cases shown below.
RECORD SEQUENCE: CARSSRDSSAAGNASASA [FS-2092]
ASSIGNED CATEGORY: inactive

RECORD SEQUENCE: CARSSREKRRAGNASASA [FS-377]
ASSIGNED CATEGORY: active

RECORD SEQUENCE: CARSSRSNGRAGNASASA [FS-3097]
ASSIGNED CATEGORY: inactive

Switching to the query record.
Which outcome was assigned to CARKRRHHKEAGNASASA [FS-2699] in this test?
active
